Data credit: ChEMBL document CHEMBL1201862

The entries below are paired with their reported GI50.
system: SW-620; experiment: NCI tumour cell line growth inhibition, 48 h
The source made the active and inactive calls. No stated cut-off is given here; in the data, active = GI50 up to about 1.1 µM and inactive = higher.

COMPOUND | SYSTEM_UNDER_TEST | GI50
O=S(O)CCCCCSSCCCCSSCCCCCS(=O)O | SW-620 | > 100 µM (inactive)
Oc1cccc(-c2cc(O)c3cc4c(cc3n2)OCO4)c1 | SW-620 | 3.21 µM (inactive)
COc1ccc(CCN2C(=O)CC34C=CC(CC3C2=O)O4)cc1OC (configuration not stated) | SW-620 | > 100 µM (inactive)
CN(C)Cc1cc(O)c(O)c(CN(C)C)c1 | SW-620 | 64.3 µM (inactive)
C[N+](C)(C)C(C1=CCCC1=O)c1ccccc1 (configuration not stated) | SW-620 | 21.5 µM (inactive)
N#CI1OC(=O)c2ccccc21 | SW-620 | > 100 µM (inactive)
O=C1/C(=C/c2ccc(O)cc2)Oc2ccccc21 | SW-620 | > 100 µM (inactive)

###

system: HOP-18; test: NCI tumour cell line growth inhibition, 48 h
Activity calls are given as the source filed them. Rule as the data show it: active = GI50 up to about 1.1 µM and inactive = higher. Numbered stars: 1 amine (or outer) side, 2 acyl side, 3 side chain; on linkers, the order of the positions; unused ones are H or OH. Square brackets hold non-standard residues; d marks the D form. Peptide text beside a SMILES is read from it. X55 = CC[C@H](C)[C@H](OC(=O)[C@@H](C)[C@@H](CC)N[*:1])C(=O)[*:2]; X31 = C[C@H](N[*:1])C(=O)C(C)(C)C(=O)[*:2]; NMeY = CN[C@@H](Cc1ccc(O)cc1)C(=O)O; NMeL = CN[C@@H](CC(C)C)C(=O)O; NMeV = CN[C@H](C(=O)O)C(C)C
Outcomes: yes (1) = active, no (0) = inactive

COMPOUND | ASSIGNED_CLASS
COC(=O)C(CCC1(C)OCCO1)C(C)=O (stereo unspecified) | no (0)
Cc1ccc(NC(=O)C2C(=O)C(=O)N(c3ccc(C)cc3)C2=O)cc1 (stereo unspecified) | no (0)
CSc1c(C)c(C)nn1-c1ccccc1 | yes (1)
COc1nc(NC2OC(COC(C)=O)C(OC(C)=O)C(OC(C)=O)C2OC(C)=O)c(/N=C(\C)C(C)=O)c(=O)n1C (stereo unspecified) | no (0)
O=C1C(c2ccc(Cl)cc2)=[N+]([O-])c2ccccc21 | no (0)
CCN(CC)CCCC(C)Nc1c(Sc2cnc3cc(Cl)ccc3c2NC(C)CCCN(CC)CC)cnc2cc(Cl)ccc12 (stereo unspecified) | no (0)
CC[C@H](C)[C@@H]1OC(=O)[C@@H](C)[C@@H](CC)NC(=O)[C@H](C)NC(=O)C(C)(C)C(=O)[C@H](C)NC(=O)[C@H](Cc2ccc(OC)cc2)N(C)C(=O)[C@H](C(C)C)N(C)C(=O)CNC(=O)[C@H](CC(C)C)N(C)C(=O)CNC1=O [DOLASTATIN 11] (cyclo(A[X55]G[NMeL]G[NMeV][NMeY](Me)[X31])) | yes (1)
O=C1[C@@H]2C(c3ccc(Cl)cc3Cl)=NO[C@@H]2C(=O)N1c1ccc(Cc2ccc(N3C(=O)[C@H]4C(c5ccc(Cl)cc5Cl)=NO[C@H]4C3=O)cc2)cc1 | no (0)
C=C1CCC2(C(C)=O)COC1(C)O2 (stereo unspecified) | no (0)
CN(C)C(CN)CC1=C(CC(CN)N(C)C)CCC1 (stereo unspecified) | no (0)
CCOC(=O)/C(O)=C1\C(=O)N(C)C(=O)C1c1ccc(OC)c(OC)c1 (stereo unspecified) | no (0)
